biological target: DLG2_3, Q15700; assay: holdup assay; parameters: key: below the threshold = too weak to quantify, mostly under pKd 3.1 to 4; conditions: plain residues with an end cap or a label only (N-terminal biotin on a linker: ttds)
The following binders are listed with their measured pKd values.
REPORTED PROPERTY: pKd

BINDER: GARVSKETPL [MAPK12, P53778]
REPORTED PROPERTY: pKd
VAL: 4.21

BINDER: PPRQRSETQV [HPV82-E6, Q9IR59]
REPORTED PROPERTY: pKd
VAL: 4.9

BINDER: SRSRRRETAL [HPV33-E6, P06427]
REPORTED PROPERTY: pKd
VAL: 5.23

BINDER: SHSSKGETAV [FZD7, O75084]
REPORTED PROPERTY: pKd
VAL: 4.32
